target: eIF4E/eIF4G interaction (Homo sapiens, UniProt P06730); test: Fluorescence polarization (FP) assay of eIF4E/eIF4G interaction; conditions: fluorescence polarization; some cells give words
Sequence (P06730 whole entry, species assumed): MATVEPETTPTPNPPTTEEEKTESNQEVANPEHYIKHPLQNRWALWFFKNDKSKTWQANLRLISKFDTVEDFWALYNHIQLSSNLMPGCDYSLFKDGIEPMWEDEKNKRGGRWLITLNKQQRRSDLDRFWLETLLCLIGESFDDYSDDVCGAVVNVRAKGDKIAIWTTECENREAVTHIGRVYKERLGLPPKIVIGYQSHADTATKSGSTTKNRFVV
property measured: EC50

**Q:** Request body: readout EC50, system eIF4E/eIF4G interaction (Homo sapiens, UniProt P06730), query "COc1cccc(-c2nc(Cn3nc(C(=O)O)c4cc(C(F)(F)F)ccc43)sc2C(C)C)c1" . Return the value.
**A:** 24 to 36 µM

###

system: AU565 (breast cancer ER−/PR−, her2−nue+); test: Cell proliferation assay, AU565; format: cell-based; conditions: Homo sapiens, AU565; AU-565, 91 hours; read-out: ED50 (μM), anti-proliferative activity against AU-565
property measured: EC50

**Q:** Recorded EC50 for "COc1cccc(-c2nc(-n3cc(C(=O)N4CCNCC4)c4cc(C(F)(F)F)ccc43)sc2C(C)C)c1" , please?
**A:** 1.2 to 1.8 µM

###

experiment: Compound solubility in DMSO; type: physicochemical
property measured: Compound Solubility DMSO

COc1cccc(-c2nc(-n3nc(CC(=O)O)c4cc(Cl)ccc43)sc2C(C)C)c1 [Structure 14]; complete
CCOC(=O)CN(C)C(=O)c1nn(-c2nc(-c3cccc(OC)c3)c(C(C)C)s2)c2ccc(C(F)(F)F)cc12 [Structure 48]; half/less
CCOC(=O)CNC(=O)c1nn(-c2nc(-c3cccc(OC)c3)c(C(C)C)s2)c2ccc(C(F)(F)F)cc12 [Structure 47]; complete
COc1cccc(-c2nc(-n3nc(C(=O)c4nn[nH]n4)c4cc(C(F)(F)F)ccc43)sc2C(C)C)c1 [Structure 13]; complete

**Q:** Recorded Compound Solubility DMSO for COC(=O)CNC(=O)c1nn(-c2nc(-c3cccc(OC)c3)c(C(C)C)s2)c2ccc(C(F)(F)F)cc12 [Structure 45] , please?
**A:** half/less

**Q:** Here is the next compound: COc1cccc(-c2nc(-n3nc(CC(=O)NCC(=O)O)c4cc(Cl)ccc43)sc2C(C)C)c1 [Structure 15]
**A:** complete

**Q:** Here is the next compound: COc1cccc(-c2nc(-n3nc(CC(=O)N(C)CC(=O)O)c4cc(Cl)ccc43)sc2C(C)C)c1 [Structure 16]
**A:** complete

Data origin: patent US9409901B2
